Test system: HCT-116 colon
Assay: NCI tumour cell line growth inhibition, 48 h
Reported TGI by item:
Attribute measured: TGI (µM)

>>> df
                                   compound    system_name  attribute_measured  endpoint_unit  comparison_symbol  reported
0              Nc1ncc(C=O)c(NCC2(CO)CCC2)n1  HCT-116 colon                 TGI             µM                  >       100
1  NS(=O)(=O)c1ccc(NC(=O)C2C(=O)C(=O)N(c3ccc(S(N)(=O)=O)cc3)C2=O)cc1 (configuration not stated)  HCT-116 colon                 TGI             µM                  >       100
2  CN(C)c1ccc(/C=N/c2nc3cc4sc(/N=C/c5ccc(N(C)C)cc5)nc4cc3s2)cc1  HCT-116 colon                 TGI             µM                  >       100
3  CCOC(=O)c1c(C)nc2c(c1N)/C(=C/c1ccccn1)C(=O)N2Cc1ccccc1  HCT-116 colon                 TGI             µM                  =      1.62
4        CC(=O)Oc1c2ccsc2c(OC(C)=O)c2ccsc12  HCT-116 colon                 TGI             µM                  =      2.21
5  ClCC[N-]CC[N-]CCCl.ClCC[N-]CC[N-]CCCl.[O-][Cl+3]([O-])([O-])O.[Zn+2]  HCT-116 colon                 TGI             µM                  >      62.8
6  O=C(NCCOCCOCCOCCNC(=O)c1cc2c(o1)C(=O)c1ccccc1C2=O)NC12CC3CC(CC(C3)C1)C2  HCT-116 colon                 TGI             µM                  =      8.95

====

Reported TGI by item:
System: NCI-H460 lung
Test: NCI tumour cell line growth inhibition, 48 h
Attribute measured: TGI

In [3]: df
Out[3]:
                                    molecule   reported
 0                C=CCOCn1cc(F)c(=O)[nH]c1=O   > 100 µM
 1          CS(=O)(=O)OCCCSCCSCCCOS(C)(=O)=O   > 100 µM
 2  O=CC1C(Cl)=Nc2nc3ccccc3n2C1c1ccccc1 (stereo not drawn)   > 100 µM
 3        S=C(N/N=C/c1ccccn1)N1CC2CCC(CC2)C1   0.207 µM
 4        Clc1cccc(CNc2c3ccccc3nc3ccccc23)c1     4.2 µM
 5  O=C(CC1C(=O)Nc2ccccc2S1(=O)=O)Nc1ccc(Cl)cc1 (stereo not drawn)   > 100 µM
 6  CCOC(=O)c1c(N2CCCC2)[nH]c(=O)c(C(c2ccc(Cl)c([N+](=O)[O-])c2)c2c(O)c(C(=O)OCC)c(N3CCCC3)[nH]c2=O)c1O   > 100 µM
 7  O=C(Nc1ccc(Cl)cc1)c1cc([N+](=O)[O-])ccc1O  > 79.8 µM
 8  N#C/C(=C1\OC(=N)C(c2ccccc2)C1=O)c1ccccc1 (stereo not drawn)   > 100 µM
 9                CC(=O)/C(Br)=C/c1ccc(Br)o1    30.9 µM
10  COc1ccc(O)cc1C(O)c1ccccc1 (stereo not drawn)   > 100 µM
11  c1ccc(Cn2c(-c3ccc(-c4ccccc4)cc3)cc3ccccc32)cc1   > 100 µM
12  Oc1[nH]c2ccccc2c1/C=c1/ccc2c(c1)N=C(c1ccc(C(F)(F)F)cc1)N=2    6.12 µM
13  C(=C\C(Sc1ccccc1)c1ccccc1)/NNC1=NC(c2ccccc2)C(c2ccccc2)=NN1 (stereo not drawn)   > 100 µM
14         C/C(=N\Nc1nc2ccccc2[nH]1)c1cnccn1   > 100 µM
15  O=C(Nc1ccccc1)OC1OC(COC(=O)c2ccccc2)C(OC(=O)c2ccccc2)C1OS(=O)(=O)c1ccc([N+](=O)[O-])cc1 (stereo not drawn)   > 100 µM
16            O=C1Cc2cc(CCn3cncn3)c(Cl)cc2N1   > 100 µM
17  CCS(=O)c1c2cc(OC)ccc2nc2ccc(OC)cc12 (stereo not drawn)    > 68 µM
